- Protocol Details: Assay B: Microsomal clearance
- Assay type: in vitro ADME, human
- Experimental Context: pooled liver microsomes 1 mg/ml, 1 μM compound, NADPH, 37° C.; clearance as % of hepatic blood flow
Measurement Name: human LM [% Qh]

Here are 3 compounds together with their reported answers.
COCCNC(=O)c1cn(Cc2nnn(C[C@H](O)c3ccc(Cl)cc3)n2)c(=O)n(C)c1=O = <23 % Qh
NC(=O)c1cn(Cc2nnn(C[C@H](O)c3ccc(Cl)cc3)n2)c(=O)n(C2CCC2)c1=O = 38 % Qh
COc1ccc([C@@H](O)Cn2nnc(Cn3cc(C(N)=O)c(=O)n(C)c3=O)n2)cc1 = <23 % Qh

Please turn your attention to the following entry.
The recorded human LM [% Qh] for Cn1c(=O)c(C(N)=O)cn(Cc2nnn(C[C@H](O)c3ccc(Cl)s3)n2)c1=O is <23 % Qh
